Target: GST-Met 248 PDE IVa (GST fusion protein of the human recombinant phosphodiesterase IVa (met-248)) (Homo sapiens)
Construct: phosphodiesterase IVa (met-248)
Sequence (P27815 248-886 limits assumed): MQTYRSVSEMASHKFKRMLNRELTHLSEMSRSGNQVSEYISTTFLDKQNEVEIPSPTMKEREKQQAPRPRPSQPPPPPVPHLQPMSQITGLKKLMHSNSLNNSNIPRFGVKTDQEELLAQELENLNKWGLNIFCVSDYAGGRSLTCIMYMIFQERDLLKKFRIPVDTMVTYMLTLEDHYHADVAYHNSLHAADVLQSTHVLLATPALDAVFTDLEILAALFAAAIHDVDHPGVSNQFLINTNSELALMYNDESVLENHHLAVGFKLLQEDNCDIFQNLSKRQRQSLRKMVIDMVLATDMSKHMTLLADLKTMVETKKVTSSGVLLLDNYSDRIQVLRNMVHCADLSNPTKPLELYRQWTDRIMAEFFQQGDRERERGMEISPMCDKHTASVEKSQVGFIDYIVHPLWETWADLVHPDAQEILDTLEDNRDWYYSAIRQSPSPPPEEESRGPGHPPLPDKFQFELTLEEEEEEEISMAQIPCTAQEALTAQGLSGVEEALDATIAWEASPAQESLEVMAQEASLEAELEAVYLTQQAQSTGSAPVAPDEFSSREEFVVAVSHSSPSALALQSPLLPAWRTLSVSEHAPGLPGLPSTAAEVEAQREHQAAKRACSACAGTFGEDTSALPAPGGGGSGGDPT
Experiment: SPA based PDE activity assay: inhibition of human recombinant PDE IVa (GST-Met 248)
Details: 100 nM cAMP; purified GST fusion protein, baculovirus/Sf-9 expression system
quantity_name: IC50 (nM)

# example entries with known answers
molecule: COc1ccc([C@H](Cc2ccncc2)c2ccc(C(=O)NS(=O)(=O)c3ccccc3C)cc2)cc1OC1CCCC1
IC50 [nM]: 0.4
//
molecule: COc1ccc(C(Cc2ccncc2)c2ccc(S(=O)(=O)NC(=O)c3ccccc3C)cc2)cc1OC1CCCC1 (centres unmarked)
IC50 [nM]: 0.7
//
molecule: COc1ccc([C@H](Cc2ccncc2)c2ccc(CC(=O)NS(=O)(=O)C(F)(F)F)cc2)cc1OC1CCCC1
IC50 [nM]: 0.8

1: COc1ccc([C@H](Cc2ccncc2)c2ccc(C(=O)NS(=O)(=O)C(F)(F)F)cc2)cc1OC1CCCC1
2: COc1ccc([C@H](Cc2ccncc2)c2ccc(C(=O)NS(C)(=O)=O)cc2)cc1OC1CCCC1
3: COc1ccc([C@H](Cc2ccncc2)c2ccc(C(=O)NS(=O)(=O)c3ccccc3)cc2)cc1OC1CCCC1
4: COc1ccc([C@H](Cc2ccncc2)c2ccc(C(O)(C(F)(F)F)C(F)(F)F)cc2)cc1OC1CCCC1
5: COc1ccc([C@H](Cc2ccncc2)c2ccc(CC(=O)NS(=O)(=O)c3ccccc3)cc2)cc1OC1CCCC1
Could you please order the items by IC50, going from the lowest number to the highest? # the answer lists labels in the order requested
4, 3, 1, 5, 2
(4: 0.2 nM, 3: 0.5 nM, 1: 1 nM, 5: 1.5 nM, 2: 4 nM)
